Biological target: T1, cynomolgus CGRP receptor (cynoCRLR + cynoRAMP1) (cynomolgus monkey)
T1 chain 1: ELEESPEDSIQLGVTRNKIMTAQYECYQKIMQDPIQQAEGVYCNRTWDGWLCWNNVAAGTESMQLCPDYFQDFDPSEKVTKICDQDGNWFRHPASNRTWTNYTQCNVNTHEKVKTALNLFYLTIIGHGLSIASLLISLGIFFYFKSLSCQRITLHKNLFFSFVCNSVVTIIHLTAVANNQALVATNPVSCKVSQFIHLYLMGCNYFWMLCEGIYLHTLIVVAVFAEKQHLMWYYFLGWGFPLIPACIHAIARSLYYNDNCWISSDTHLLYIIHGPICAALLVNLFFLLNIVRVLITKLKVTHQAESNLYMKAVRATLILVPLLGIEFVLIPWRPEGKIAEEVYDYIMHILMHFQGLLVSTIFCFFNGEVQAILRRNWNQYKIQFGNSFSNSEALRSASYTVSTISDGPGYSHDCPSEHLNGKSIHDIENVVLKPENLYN
T1 chain 2: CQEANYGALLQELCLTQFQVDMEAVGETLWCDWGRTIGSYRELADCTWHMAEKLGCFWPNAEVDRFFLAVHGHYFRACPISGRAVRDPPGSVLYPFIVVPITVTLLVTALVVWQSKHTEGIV
Experiment: cell-based or functional assay
readout-label: cAMP assay IC50 (nM)

[[record]]
binder = "13H2 (antibody, human IgG2, kappa, V domains shown, also called 13H2.2) VH: EVQLVESGGGLVKPGGSLRLSCAASGYTFSTYSMNWVRQAPGKGLEWVSSISSSSSYRYYADSVKGRFTISRDNAKNSLYLQMSSLRAEDTAVYYCAREGVSGSSPYSISWYDYYYGMDVWGQGTTVTVSS VL: DIQMTQSPSSLSASVGDRVTITCRASQGIRKDLGWYQQKPGKAPKRLIYGASSLQSGVPSRFSGSGSGTEFTLTISSLQPEDFATYYCLQYNSFPWTFGQGTKVEIKR"
result_number = 8.41

